# experimental-system: T1, SC35 (GST-SC35) (Populus tomentosa, UniProt A0AAD6QWB7 1-302)
# T1 sequence: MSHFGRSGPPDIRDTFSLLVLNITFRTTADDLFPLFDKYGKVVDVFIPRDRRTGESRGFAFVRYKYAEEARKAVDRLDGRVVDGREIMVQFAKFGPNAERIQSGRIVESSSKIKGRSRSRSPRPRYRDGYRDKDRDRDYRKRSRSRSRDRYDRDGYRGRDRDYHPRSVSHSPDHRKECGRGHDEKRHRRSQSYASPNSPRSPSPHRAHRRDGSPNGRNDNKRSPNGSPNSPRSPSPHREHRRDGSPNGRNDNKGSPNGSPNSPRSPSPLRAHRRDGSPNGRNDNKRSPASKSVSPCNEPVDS
# test-name: EMSA
measurement-label: binding result

Record request: binding result value, item UUAGAGAGAGUGGAAUUAGUGGGUUUGGUU (ssRNA) [Probe2]
binds

Record request: binding result value, item UUAGAGAGAGUCCUUAAUCUGGGUUUGGUU (ssRNA) [Mutation-Probe2]
no binding

Record request: binding result value, item CAUUAUGUUGAGGAAUUAGAAGAUAAGGUG (ssRNA) [Probe1]
binds

Record request: binding result value, item CAUUAUGUUGACCUUAAUCAAGAUAAGGUG (ssRNA) [Mutation-Probe1]
no binding
